Data provenance: patent US20250179059A1

# MEASURED_TARGET: human BRD4 bromodomain II (Homo sapiens)
# Construct: human BRD4 bromodomain II [based on Genbank NM_058243, residues 349-460]; host or cells: E. coli
# PROTOCOL: Bromodomain binding assay (AlphaScreen), BRD4 BDII
# CONDITION_LABEL: AlphaScreen assay, Table C2; read-out: BRD4 BDII IC50
pIC50: −log10 of the molar value.
The following compounds are shown together with reported pIC50 values.

{"COMPOUND": "Cn1ccn(-c2ccc(-c3cc(F)cc(-c4ccnc(N5CCN(CCCF)CC5)c4)c3O)cc2Cl)c1=O", "pIC50": "9.00 to 11.00"}
{"COMPOUND": "CC(=O)Nc1ccc(-c2cccc(-c3ccc(N4CCN(C)C4=O)c(Cl)c3)c2O)cc1N1CCNCC1", "pIC50": "8.00 to 9.00"}
{"COMPOUND": "Cn1ccn(-c2ccc(-c3cc(F)cc(-c4ccnc(N5CCN(Cc6ccccc6)CC5)c4)c3O)cc2Cl)c1=O", "pIC50": "9.00 to 11.00"}
{"COMPOUND": "CN1CCN(c2ccc(-c3cc(C4CC4)cc(-c4ccnc(N5CCNCC5)c4)c3O)cc2Cl)C1=O", "pIC50": "8.00 to 9.00"}
{"COMPOUND": "Cn1ccn(-c2ccc(-c3cc(F)cc(-c4cncc(N5CC[C@@](C)(N)C5)c4)c3O)cc2Cl)c1=O", "pIC50": "9.00 to 11.00"}
{"COMPOUND": "Cn1ccn(-c2ccc(-c3cc(F)cc(-c4cc(N5CCN6CCCCC6C5)c5cnn(C)c5c4)c3O)cc2Cl)c1=O (stereo not shown)", "pIC50": "9.00 to 11.00"}
{"COMPOUND": "CNC(=O)c1cc(-c2cccc(-c3ccc(NC(C)=O)c(F)c3)c2O)cc(N2CCNCC2)n1", "pIC50": "7.00 to 8.00"}

----------
# MEASURED_TARGET: human BRD4 bromodomain II (Homo sapiens, UniProt O60885)
# Construct: human BRD4 bromodomain II [based on Genbank NM_058243, residues 349-460]; host or cells: E. coli
# PROTOCOL: Bromodomain binding assay (AlphaScreen), BRD4 BDII
# CONDITION_LABEL: AlphaScreen assay, Table C2; read-out: BRD4 BDII IC50

{"COMPOUND": "Cn1ccn(-c2ccc(-c3cc(F)cc(-c4cncc(N5CC[C@](C)(O)C5)c4)c3O)cc2Cl)c1=O [Example 729]", "IC50": "0.01 to 1 nM"}
{"COMPOUND": "COc1cc(-c2cc(F)cc(-c3ccc(-n4ccn(C)c4=O)c(Cl)c3)c2O)cc(N2CCN(C(C)C)CC2)n1 [Example 702]", "IC50": "0.01 to 1 nM"}
{"COMPOUND": "O=C1NCCN1c1ccc(-c2cccc(-c3cccc(N4CCNCC4)c3)c2O)cc1F [Example 197]", "IC50": "1 to 10 nM"}
{"COMPOUND": "Cn1ccn(-c2ccc(-c3cc(F)cc(-c4cc(N5CCOCC5)c5cn[nH]c5c4)c3O)cc2Cl)c1=O [Example 590]", "IC50": "1 to 10 nM"}
{"COMPOUND": "CC(=O)Nc1ccc(-c2cccc(-c3csc(N4CCNCC4)n3)c2O)cc1F [Example 212]", "IC50": "> 100 nM"}
{"COMPOUND": "C[C@H]1CCCN(c2cc(-c3cc(F)cc(-c4ccc(-n5ccn(C)c5=O)c(Cl)c4)c3O)cc3[nH]ncc23)C1 [Example 596]", "IC50": "10 to 100 nM"}
{"COMPOUND": "O=C1CCCN1c1ccc(-c2cc(Cl)cc(-c3ccnc(N4CCNCC4)c3)c2O)cc1Cl [Example 274]", "IC50": "1 to 10 nM"}

----------
# System: human SKM-1 acute myeloid leukemia cells
# PROTOCOL: SKM-1 antiproliferation cell-based assay (ATPlite)
# CONDITION_LABEL: Homo sapiens, SKM-1, 96 h, SKM-1 antiproliferation assay, 4 days, Table C2
READOUT_NAME: GI50

{"COMPOUND": "COc1ncc(-c2cc(F)cc(-c3ccc(-n4ccn(C)c4=O)c(Cl)c3)c2O)cc1N1CC(O)(CO)C1 [Example 838]", "RESULT": "30 to 300 nM"}
{"COMPOUND": "CC(=O)NCCNc1ncc(-c2cc(F)cc(-c3ccc(N4CCN(C)C4=O)c(Cl)c3)c2O)cc1N1CCNCC1 [Example 395]", "RESULT": "30 to 300 nM"}
{"COMPOUND": "CC(C)N1CCN(c2cc(-c3cc(F)cc(-c4ccc(-n5ccn(C)c5=O)c(Cl)c4)c3O)cnc2C(F)F)CC1 [Example 831]", "RESULT": "0.3 to 30 nM"}
{"COMPOUND": "CCc1ncc(-c2cc(F)cc(-c3ccc(-n4ccn(C)c4=O)c(Cl)c3)c2O)cc1N1CCN(C(C)C)CC1 [Example 756]", "RESULT": "0.3 to 30 nM"}
{"COMPOUND": "CCN1CCN(c2ccc(-c3cccc(-c4ccnc(N5CCNCC5)c4)c3O)cc2Cl)C1=O [Example 346]", "RESULT": "300 to 3000 nM"}
{"COMPOUND": "Cn1ccn(-c2ccc(-c3cc(F)cc(-c4cncc(N5CC[C@@](C)(N)C5)c4)c3O)cc2Cl)c1=O [Example 742]", "RESULT": "0.3 to 30 nM"}
{"COMPOUND": "C[C@@H]1CN(c2cc(-c3cc(Cl)cc(-c4ccc(-n5ccn(C)c5=O)c(Cl)c4)c3O)ccn2)CCN1 [Example 540]", "RESULT": "0.3 to 30 nM"}

----------
# MEASURED_TARGET: human BRD4 bromodomain II (Homo sapiens, UniProt O60885)
# Construct: human BRD4 bromodomain II [based on Genbank NM_058243, residues 349-460]; host or cells: E. coli
# PROTOCOL: Bromodomain binding assay (AlphaScreen), BRD4 BDII
# CONDITION_LABEL: BRD4 BDII AlphaScreen assay; read-out: BRD4 BD2 IC50
The following compounds are shown together with reported IC50 values.

{"SMILES_CODE": "COc1ncc(-c2cc(F)cc(-c3ccc(-n4c(C)cn(C)c4=O)c(Cl)c3)c2O)cc1N1CCN(C(C)(C)C)CC1", "IC50": "1 to 10 nM"}
{"SMILES_CODE": "COc1ncc(-c2cc(F)cc(-c3ccc(-n4ccn(C)c4=O)c(Cl)c3)c2O)cc1N1CCCN(C(C)(C)C)CC1", "IC50": "0.01 to 1 nM"}
{"SMILES_CODE": "Cc1cc(-c2cc(F)cc(-c3cccc(N4CCN(C(C)(C)C)CC4)c3)c2O)cc(Cl)c1-n1ccn(C)c1=O", "IC50": "10 to 100 nM"}
{"SMILES_CODE": "COc1ncc(-c2cc(F)cc(-c3ccc(-n4ccn(C)c4=O)c(Cl)c3)c2O)cc1N1CC(C)(C)[C@@](C)(O)C1", "IC50": "0.01 to 1 nM"}

----------
# MEASURED_TARGET: human BRD4 bromodomain II (Homo sapiens, UniProt O60885)
# Construct: human BRD4 bromodomain II [based on Genbank NM_058243, residues 349-460]; host or cells: E. coli
# PROTOCOL: Bromodomain binding assay (AlphaScreen), BRD4 BDII
# CONDITION_LABEL: AlphaScreen assay, Table C2; read-out: BRD4 BDII IC50
The following compounds are shown together with reported IC50 values.

{"COMPOUND": "COCC(COC)N1CCN(c2cc(-c3cc(F)cc(-c4ccc(-n5ccn(C)c5=O)c(Cl)c4)c3O)ccn2)CC1 [Example 733]", "MEASURED_TARGET": "human BRD4 bromodomain II (Homo sapiens, UniProt O60885)", "IC50": "1 to 10 nM"}
{"COMPOUND": "CC(=O)Nc1ccc(-c2cccc(-c3cc(C#N)nc(N4CCNCC4)c3)c2O)cc1F [Example 313]", "MEASURED_TARGET": "human BRD4 bromodomain II (Homo sapiens, UniProt O60885)", "IC50": "> 100 nM"}
{"COMPOUND": "O=C1CCCN1c1ccc(-c2cccc(-c3ccnc(N4CCNCC4)c3)c2O)cc1Cl [Example 209]", "MEASURED_TARGET": "human BRD4 bromodomain II (Homo sapiens, UniProt O60885)", "IC50": "1 to 10 nM"}
{"COMPOUND": "CC(=O)Nc1ccc(-c2cccc(-c3cc(OC4CCC(N)CC4)nc(N4CCNCC4)c3)c2O)cc1F (stereo not shown) [Example 375]", "MEASURED_TARGET": "human BRD4 bromodomain II (Homo sapiens, UniProt O60885)", "IC50": "10 to 100 nM"}
{"COMPOUND": "CCOc1cc(-c2cccc(-c3cc(N4CCNCC4)no3)c2O)ccc1NC(C)=O [Example 19, 2,2,2-trifluoroacetate]", "MEASURED_TARGET": "human BRD4 bromodomain II (Homo sapiens, UniProt O60885)", "IC50": "> 100 nM"}
{"COMPOUND": "CC(=O)Nc1ccc(-c2cccc(-c3ccc(C#N)c(N4CCNCC4)c3)c2O)cc1F [Example 236]", "MEASURED_TARGET": "human BRD4 bromodomain II (Homo sapiens, UniProt O60885)", "IC50": "1 to 10 nM"}
{"COMPOUND": "Cn1ccn(-c2ccc(-c3cc(F)cc(-c4cc(N5CCNCC5)c5nc[nH]c5c4)c3O)cc2Cl)c1=O [Example 504]", "MEASURED_TARGET": "human BRD4 bromodomain II (Homo sapiens, UniProt O60885)", "IC50": "1 to 10 nM"}
